- TARGET_SYSTEM: HNF4alpha2 (COS-7 nuclear extract) (Homo sapiens, UniProt P41235 1-474)
- Sequence: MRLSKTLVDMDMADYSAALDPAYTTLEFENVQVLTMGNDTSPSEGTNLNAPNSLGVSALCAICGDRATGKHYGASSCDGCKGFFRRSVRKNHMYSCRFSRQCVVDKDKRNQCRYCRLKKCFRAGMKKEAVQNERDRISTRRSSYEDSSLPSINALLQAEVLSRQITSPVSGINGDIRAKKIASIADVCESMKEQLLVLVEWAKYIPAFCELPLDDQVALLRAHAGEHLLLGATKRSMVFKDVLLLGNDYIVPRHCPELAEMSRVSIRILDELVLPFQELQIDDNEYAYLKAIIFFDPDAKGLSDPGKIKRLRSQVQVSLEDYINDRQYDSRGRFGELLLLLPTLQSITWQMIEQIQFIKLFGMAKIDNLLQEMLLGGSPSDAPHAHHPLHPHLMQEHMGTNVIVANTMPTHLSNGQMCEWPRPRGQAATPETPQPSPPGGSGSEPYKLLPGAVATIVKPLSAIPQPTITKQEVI
- ASSAY_PROTOCOL: protein-binding microarray; COS-7 nuclear extract on double-stranded Agilent 4x180k PBM; binding buffer, salt, pH and temperature not given in the material; high values mean tight binding
- MEASUREMENT_PARAMETERS: chain copies: 2; label: 3' end of strand 1 on the slide; dsDNA, one strand shown
Over roughly 18,000 sequences, “log2 normalized intensity” has its median near 0.39; the highest 2% begin near 6.6. For the sample, the highest values were picked, then their nearest neighbours and some sequences at random.
Output Satisfied for binding signal not less than 4 log2 normalized intensity; output Not satisfied otherwise.

>  <ENTRY_SEQUENCE>
CTCCAAACATCTTTGGTATGGACTGATATTGCCTAGGGAGATTAGAGTATCGGTCGA

>  <CLASS_NAME>
Not satisfied

$$$$
>  <ENTRY_SEQUENCE>
ACAGTTCTGATACATTGGACAACTGTACTTGCCTAGGGAGATTAGAGTATCGGTCGA

>  <CLASS_NAME>
Not satisfied

$$$$
>  <ENTRY_SEQUENCE>
ATCTCCAAACGAGACTTTGGACTTTGGACTGCCTAGGGAGATTAGAGTATCGGTCGA

>  <CLASS_NAME>
Satisfied

$$$$
>  <ENTRY_SEQUENCE>
GACTCATCTCCAAACGAGACTTTGGACTTTGCCTAGGGAGATTAGAGTATCGGTCGA

>  <CLASS_NAME>
Satisfied

$$$$
>  <ENTRY_SEQUENCE>
TACATTGGACAACTGTACTTTGGACTGGGGGCCTAGGGAGATTAGAGTATCGGTCGA

>  <CLASS_NAME>
Satisfied

$$$$

IN: Hi, just wondering whether TCCACAGTCAAGGCCAAAGGTTAAAAATAAGCCTAGGGAGATTAGAGTATCGGTCGA shows binding signal of 4 log2 normalized intensity or higher.
OUT: Not satisfied

IN: Hi, just wondering whether TCTGATACATTGGACAACTGTACTTTGGACGCCTAGGGAGATTAGAGTATCGGTCGA shows binding signal of 4 log2 normalized intensity or higher.
OUT: Satisfied

IN: Hi, just wondering whether GGTGTAAGCTCTGGAGTCCAAAGGTCAGCAGCCTAGGGAGATTAGAGTATCGGTCGA shows binding signal of 4 log2 normalized intensity or higher.
OUT: Satisfied

IN: Hi, just wondering whether GGCCTTTGGACCCAGACTGAATCACACTACGCCTAGGGAGATTAGAGTATCGGTCGA shows binding signal of 4 log2 normalized intensity or higher.
OUT: Not satisfied

IN: Hi, just wondering whether GAGACAGCTCCACAGCTGGACTTTGGCTGCGCCTAGGGAGATTAGAGTATCGGTCGA shows binding signal of 4 log2 normalized intensity or higher.
OUT: Satisfied

IN: Hi, just wondering whether CTTAAAGGCCTGTGTCGATGTTAACGCTAAGCCTAGGGAGATTAGAGTATCGGTCGA shows binding signal of 4 log2 normalized intensity or higher.
OUT: Not satisfied

Taken from paper PMC10726135.
